- target of assay: the molecule itself
- procedure details: negative-stain TEM

protein	binding result
SPOP W131G (natural protein) MSRVPSPPPPAEMSSGPVAESWCYTQIKVVKFSYMWTINNFSFCREEMGEVIKSSTFSSGANDKLKWCLRVNPKGLDEESKDYLSLYLLLVSCPKSEVRAKFKFSILNAKGEETKAMESQRAYRFVQGKDGGFKKFIRRDFLLDEANGLLPDDKLTLFCEVSVVQDSVNISGQNTMNMVKVPECRLADELGGLWENSRFTDCCLCVAGQEFQAHKAILAARSPVFSAMFEHEMEESKKNRVEINDVEPEVFKEMMCFIYTGKAPNLDKMADDLLAAADKYALERLKVMCEDALCSNLSVENAAEILILADLHSADQLKTQAVDFINYHASDVLETSGWKSMVVSHPHLVAEAYRSLASAQCPFLGPPRKRLKQS	binds
SPOP D77E, full-length (natural protein) MSRVPSPPPPAEMSSGPVAESWCYTQIKVVKFSYMWTINNFSFCREEMGEVIKSSTFSSGANDKLKWCLRVNPKGLEEESKDYLSLYLLLVSCPKSEVRAKFKFSILNAKGEETKAMESQRAYRFVQGKDWGFKKFIRRDFLLDEANGLLPDDKLTLFCEVSVVQDSVNISGQNTMNMVKVPECRLADELGGLWENSRFTDCCLCVAGQEFQAHKAILAARSPVFSAMFEHEMEESKKNRVEINDVEPEVFKEMMCFIYTGKAPNLDKMADDLLAAADKYALERLKVMCEDALCSNLSVENAAEILILADLHSADQLKTQAVDFINYHASDVLETSGWKSMVVSHPHLVAEAYRSLASAQCPFLGPPRKRLKQS	binds
